assay_info: Pharmacokinetics following a single dose in rat (1 mg/kg iv, 3 mg/kg oral), LC-MS/MS, one-compartment model
Format: in vivo
settings: plasma, iv, 1 mg/kg, intravenous dosing 1 mg/kg, averaged across three rats, read-out: t1/2 (mins) dominant plasma half-life
# half-life >= 20 min gives yes, anything below gives no

[
  {
    "compound": "O=C1NCCCC[C@@H]1NC(=O)C12CC3CC(CC(Cl)(C3)C1)C2",
    "group_label": "no"
  },
  {
    "compound": "CC1(C(=O)N[C@H]2CCCCNC2=O)CCCCC1",
    "group_label": "no"
  },
  {
    "compound": "O=C1NCCCC[C@@H]1NC(=O)C12CC3CC(CC(C3)C1)C2",
    "group_label": "no"
  }
]

Shifting focus to the compound that follows.
Task: Can CCCCCCCCCCC(C)(C)C(=O)NC1CCCNC1=O (centres unmarked) be said to have half-life at or above 20 min?
Output: yes

---

system: NK2 receptor (Homo sapiens, UniProt P21452)
Sequence (P21452 whole entry, species assumed): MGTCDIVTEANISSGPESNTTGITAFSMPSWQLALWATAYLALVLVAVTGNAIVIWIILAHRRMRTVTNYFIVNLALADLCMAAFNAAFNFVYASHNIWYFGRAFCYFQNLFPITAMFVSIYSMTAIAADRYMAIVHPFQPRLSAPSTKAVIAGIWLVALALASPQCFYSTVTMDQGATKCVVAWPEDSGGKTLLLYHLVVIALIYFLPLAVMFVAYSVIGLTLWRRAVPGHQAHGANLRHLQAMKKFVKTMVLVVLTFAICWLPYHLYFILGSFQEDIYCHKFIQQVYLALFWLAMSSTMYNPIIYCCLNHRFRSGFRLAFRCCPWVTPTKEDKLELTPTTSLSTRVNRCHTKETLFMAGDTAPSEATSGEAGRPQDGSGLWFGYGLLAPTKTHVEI
assay_info: CEREP panel binding, NK2 receptor
settings: estimated from single concentration 10 μM; read-out: estimated ED50 for interaction with the NK2 receptor
reported_endpoint: IC50

Task: Identify IC50 associated with the compound O=C1NCCCC[C@@H]1NC(=O)C12CC3CC(CC(C3)C1)C2 [Compound (II)]
Output: 5 to 10 µM

---

assay_info: Pharmacokinetics following a single dose in rat (1 mg/kg iv, 3 mg/kg oral), LC-MS/MS, one-compartment model
Type: in vivo
settings: plasma, iv, 1 mg/kg, averaged across three rats, read-out: Vss (L/kg) volume of distribution
reported_endpoint: Vd (L/kg)
Use L/kg as the unit, but write only the number.

[
  {
    "compound": "O=C1NCCCC1NC(=O)C12CC3CC(CC(C3)C1)C2 (centres unmarked)",
    "result_units": "L/kg",
    "Vd": 0.7
  },
  {
    "compound": "O=C1NCCCC[C@@H]1NC(=O)C12CC3CC(CC(C3)C1)C2",
    "result_units": "L/kg",
    "Vd": 0.8
  },
  {
    "compound": "CCCCCCCCCCC(C)(C)C(=O)NC1CCCNC1=O (centres unmarked)",
    "result_units": "L/kg",
    "Vd": 1.95
  }
]

Task: Identify Vd associated with the compound `CC1(C(=O)N[C@H]2CCCCNC2=O)CCCCC1`
Output: 0.6

Task: Identify Vd associated with the compound `O=C1NCCCC[C@@H]1NC(=O)C12CC3CC(CC(Cl)(C3)C1)C2`
Output: 0.7

---

Reported bioavailability values are given for each entry in this list.
assay_info: Pharmacokinetics following a single dose in rat (1 mg/kg iv, 3 mg/kg oral), LC-MS/MS, one-compartment model
Type: in vivo
settings: plasma, 3 mg/kg oral in 1% CMC vs 1 mg/kg iv, one-compartment model, averaged across three rats, read-out: F (%) oral bioavailability
Experimental: Compounds were administered as a single dose (either 1 mg/kg bodyweight in 5% DMSO via the intravenous route or 3 mg/kg in 1% carboxymethylcellulose via the oral route) to three adult rats (using different rats for each compound and each route of administration). Blood was then sampled at various time points (including just prior to dose administration) out to 24 hrs post dose, and the level of the various compounds was assessed using a validated LC-MS/MS assay. […]

A selection of reference data follows.
[
  {
    "compound": "O=C1NCCCC1NC(=O)C12CC3CC(CC(C3)C1)C2 (centres unmarked) [(VII)]",
    "bioavailability": "35%"
  },
  {
    "compound": "CCCCCCCCCCC(C)(C)C(=O)NC1CCCNC1=O (centres unmarked) [Compound (VI)]",
    "bioavailability": "16%"
  },
  {
    "compound": "CC1(C(=O)N[C@H]2CCCCNC2=O)CCCCC1 [(III)]",
    "bioavailability": "5%"
  },
  {
    "compound": "O=C1NCCCC[C@@H]1NC(=O)C12CC3CC(CC(Cl)(C3)C1)C2 [(VIII)]",
    "bioavailability": "< 1%"
  }
]

Turning now to a further record.
Task: Identify bioavailability associated with the compound O=C1NCCCC[C@@H]1NC(=O)C12CC3CC(CC(C3)C1)C2 [Compound (II)]
Output: < 1%

---

System: MCP-1 induced migration of THP-1 cells
assay_info: ChemoTx transwell migration assay, MCP-1 induced migration of THP-1 cells
Assay type: cell-based
settings: Homo sapiens; THP-1 cell line; maximal dose of chemoattractant; Table 6; read-out: ED50 MCP-1 induced migration
reported_endpoint: pEC50
The meaning of pEC50 here: minus log10 of the concentration in molar units.

[
  {
    "substance_smiles": "CC(C)(C)C(=O)N[C@H]1CCCNC1=O",
    "pEC50": 10.30
  }
]

Turning now to a further record.
Task: Identify pEC50 associated with the compound `O=C1NCCCC[C@@H]1NC(=O)C12CC3CC(CC(O)(C3)C1)C2`
Output: 9.92

---

Reported AUC(0-t) values are given for each entry in this list.
assay_info: Pharmacokinetics following a single dose in rat (1 mg/kg iv, 3 mg/kg oral), LC-MS/MS, one-compartment model
Format: in vivo
settings: blood, single oral dose 3 mg/kg in 1% CMC, Tables 7-9, read-out: Exposure (min · ng/ml), oral exposure AUC 0-t (converted)
Use ng·h/mL as the unit, but write only the number.

A selection of reference data follows.
[
  {
    "compound": "O=C1NCCCC1NC(=O)C12CC3CC(CC(C3)C1)C2 (stereo not shown) [(VII)]",
    "reported_endpoint": "AUC(0-t)",
    "result_units": "ng·h/mL",
    "measurement": 542
  },
  {
    "compound": "CCCCCCCCCCC(C)(C)C(=O)NC1CCCNC1=O (stereo not shown) [Compound (VI)]",
    "reported_endpoint": "AUC(0-t)",
    "result_units": "ng·h/mL",
    "measurement": 183
  }
]

Task: Identify AUC(0-t) associated with the compound CC(C)(C)C(=O)N[C@H]1CCCNC1=O [Compound (I′)]
Output: 15600

---

Reported clearance values are given for each entry in this list.
assay_info: Pharmacokinetics following a single dose in rat (1 mg/kg iv, 3 mg/kg oral), LC-MS/MS, one-compartment model
Assay type: in vivo
settings: plasma, iv, 1 mg/kg, averaged across three rats
Use mL/min/kg as the unit, but write only the number.

[
  {
    "compound": "CC1(C(=O)N[C@H]2CCCCNC2=O)CCCCC1",
    "clearance / mL/min/kg": 55
  },
  {
    "compound": "O=C1NCCCC[C@@H]1NC(=O)C12CC3CC(CC(Cl)(C3)C1)C2",
    "clearance / mL/min/kg": 62.8
  },
  {
    "compound": "CCCCCCCCCCC(C)(C)C(=O)NC1CCCNC1=O (stereo not shown)",
    "clearance / mL/min/kg": 40.3
  }
]

Turning now to a further record.
Task: Identify clearance associated with the compound O=C1NCCCC1NC(=O)C12CC3CC(CC(C3)C1)C2 (stereo not shown)
Output: 31.1
